# ASSAY_TARGET: Calcium-activated potassium channel subunit alpha-1 (Homo sapiens, UniProt Q12791)
# Sequence (Q12791 whole entry): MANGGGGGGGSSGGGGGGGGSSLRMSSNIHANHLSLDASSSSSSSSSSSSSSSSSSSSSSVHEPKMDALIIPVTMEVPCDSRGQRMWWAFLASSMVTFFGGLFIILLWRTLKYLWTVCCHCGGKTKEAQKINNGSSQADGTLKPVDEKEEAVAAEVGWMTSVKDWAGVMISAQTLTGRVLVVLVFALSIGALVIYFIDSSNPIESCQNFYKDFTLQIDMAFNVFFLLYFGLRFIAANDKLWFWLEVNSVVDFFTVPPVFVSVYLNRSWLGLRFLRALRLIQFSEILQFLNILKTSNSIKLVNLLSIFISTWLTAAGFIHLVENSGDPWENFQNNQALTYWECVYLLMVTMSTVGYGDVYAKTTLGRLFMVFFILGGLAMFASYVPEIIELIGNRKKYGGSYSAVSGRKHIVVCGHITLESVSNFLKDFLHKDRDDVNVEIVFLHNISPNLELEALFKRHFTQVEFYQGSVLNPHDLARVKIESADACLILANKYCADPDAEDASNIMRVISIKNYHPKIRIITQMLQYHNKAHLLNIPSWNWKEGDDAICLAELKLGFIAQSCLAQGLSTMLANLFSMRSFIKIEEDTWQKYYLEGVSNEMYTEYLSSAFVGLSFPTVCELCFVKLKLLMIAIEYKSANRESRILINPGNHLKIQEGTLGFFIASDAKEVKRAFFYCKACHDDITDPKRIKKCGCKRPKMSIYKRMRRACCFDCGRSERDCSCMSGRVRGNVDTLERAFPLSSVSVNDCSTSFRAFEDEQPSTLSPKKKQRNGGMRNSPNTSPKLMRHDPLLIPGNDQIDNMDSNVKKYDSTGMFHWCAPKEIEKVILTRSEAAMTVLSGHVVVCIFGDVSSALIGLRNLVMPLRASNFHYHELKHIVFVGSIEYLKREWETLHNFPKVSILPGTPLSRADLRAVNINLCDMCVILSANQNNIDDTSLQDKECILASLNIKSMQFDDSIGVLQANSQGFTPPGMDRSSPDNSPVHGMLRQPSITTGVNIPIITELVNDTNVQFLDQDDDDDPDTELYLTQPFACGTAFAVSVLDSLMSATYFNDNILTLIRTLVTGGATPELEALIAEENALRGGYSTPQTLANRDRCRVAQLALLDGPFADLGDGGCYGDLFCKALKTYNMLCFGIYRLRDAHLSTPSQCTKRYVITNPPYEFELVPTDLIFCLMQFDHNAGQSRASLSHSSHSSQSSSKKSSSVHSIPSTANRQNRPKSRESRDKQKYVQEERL
# ASSAY_OVERVIEW: BKca channel opening activity in HEK293 cells stably transfected with BKca alpha subunits at 10 uM concentration using a [86Rb+] efflux assay
# Assay type: cell-based
VALUE_KIND: Response (%)
Answer format: numeric, % implied, no suffix.

Answered examples (10):
| COMPOUND | DISPLAY_UNIT | Response |
| --- | --- | --- |
| N#Cc1c(O)[nH]c2cccnc12 | % | 65 |
| N#Cc1c(N2CC3CCC(CC3)C2)[nH]c2cccnc12 | % | 74 |
| N#Cc1c(Nc2ccccc2)[nH]c2cccnc12 | % | 0 |
| N#Cc1c(N2CCC[C@@H]2CO)[nH]c2cccnc12 | % | 0 |
| N#Cc1c(N2CCC3CCCCC3C2)[nH]c2cccnc12 (stereo not drawn) | % | 0 |
| N#Cc1c(N2CC[C@@H](O)C2)[nH]c2cccnc12 | % | 0 |
| N#Cc1c(-n2ccnc2)[nH]c2cccnc12 | % | 62 |
| N#Cc1c(NCc2ccccc2)[nH]c2cccnc12 | % | 0 |
| CCN(CC)c1[nH]c2cccnc2c1C#N | % | 57 |
| N#Cc1c(N2CC=CC2)[nH]c2cccnc12 | % | 0 |

Which Response value is on record for N#Cc1c(N2CCC[C@H](O)C2)[nH]c2cccnc12 ?
65

# query: Response of entry N#Cc1c(N2CCCC2)[nH]c2cccnc12
58

Requested read-out: Response. Entry: CN(C)CCN(C)c1[nH]c2cccnc2c1C#N
63
